- Tested on: HCT-15
Rule: GI50 below 8 µM gives satisfied. Equal to or above 8 µM gives not satisfied.

Solved cases (6 shown):
N#CCc1nc(C#N)c(N)o1	not satisfied
CN1N=C(Nc2ccccc2)Sc2c1cnn(-c1ccccc1)c2=O	not satisfied
O=c1cc(-c2ccccc2)oc2cc(O)cc(O)c12	not satisfied
COc1cccc(-c2cc(=O)c3cc(C)c(C)c(C(=O)O)c3o2)c1	not satisfied
COC1=CC2C(c3cc4ccccc4n3S(=O)(=O)c3ccccc3)CC1CN2C(=O)OCc1ccccc1 (configuration not stated)	not satisfied
Cc1ccccc1C(=O)Oc1ccc(Oc2ccccc2)cc1	not satisfied

Input: Field: below-cutoff. Rule: recorded GI50 strictly less than 8 µM. Subject: `COc1ccnc2c1C(=O)c1nc3ccccc3c3ccnc-2c13`
Output: satisfied

Input: Does the reported GI50 of the following compound sit strictly below 8 µM? C[C@H]1COC2(c3ccccc3)CCC(=O)N12 (some centres not stated)
Output: not satisfied

Input: Criterion: GI50 strictly below 8 µM. Is it met by `O=C(/C=C/c1c(O)ccc2ccccc12)c1ccc2ccccc2c1` ?
Output: not satisfied

Input: Take the compound CCOc1cc(C2CC(c3ccc(NS(=O)(=O)c4cc([N+](=O)[O-])ccc4C)cc3)=NN2c2ccc([N+](=O)[O-])cc2[N+](=O)[O-])ccc1O (configuration not stated) and say whether its GI50 is less than 8 µM.
Output: not satisfied

Input: Just wondering, is GI50 of `COc1cc(-c2nnc3n2NC=C(C(=O)O)S3)cc(OC)c1OC` below 8 µM?
Output: not satisfied

Input: Please determine if Cc1cc(C)nc(SCC(=O)OC2CC(C)CCC2C(C)C)n1 (configuration not stated) is below 8 µM in terms of GI50.
Output: not satisfied

Input: Hi there! Is GI50 for `COc1cc2c3c(c1Oc1nnnn1-c1ccccc1)-c1c(ccc4c1OCO4)C[C@H]3N(C)CC2` below 8 µM, do you know?
Output: not satisfied

Input: Here's an entry: Cc1cn(C2CC(SCCO)C(CO)O2)c(=O)[nH]c1=O (configuration not stated) . Is its GI50 below 8 µM?
Output: not satisfied

Input: Item `C=C(CC)C(=O)c1ccc(OCC(=O)O)c(Cl)c1Cl` : GI50 beneath 8 µM, strictly?
Output: not satisfied

Input: Is the reported GI50 for `O=C(N/C(=C\c1cccc([N+](=O)[O-])c1)c1nc2cc([N+](=O)[O-])ccc2[nH]1)c1ccccc1` strictly below 8 µM?
Output: not satisfied

Input: Is GI50 of `Cc1c2ccccc2c(/C=N/NC(=O)CSCC(=O)N/N=C/c2c3ccccc3c(C)c3ccccc23)c2ccccc12` strictly below 8 µM?
Output: not satisfied

Input: Does the reported GI50 of the following compound sit strictly below 8 µM? `S=C(N/N=C\C(=N/NC(=S)N1CCCCC1)c1ccccc1)N1CCCCC1`
Output: satisfied

Input: Dear reviewer, please state whether `Cc1cc(O)c(C(C)C)cc1CN1CCCCC1` has GI50 strictly beneath 8 µM.
Output: not satisfied

Input: Would you kindly verify if GI50 of `N#Cc1ccc(/C=C2\Cc3ccccc3C2=O)cc1` is strictly less than 8 µM?
Output: not satisfied

Input: I wonder whether `O=[N+]([O-])c1cc(Cl)ccc1Sc1ccccc1` has GI50 below 8 µM. Can you tell?
Output: not satisfied

Input: GI50 strictly < 8 µM for this compound? `Cc1ccc(Oc2ccc([N+](=O)[O-])cc2[N+](=O)[O-])c(C)c1`
Output: not satisfied

Input: Please determine if `C/C1=C\[C@@H](C)C[C@@H](C)OC(=O)[C@@H](C)NC(=O)[C@H](Cc2ccc(O)c(Br)c2)N(C)C(=O)CNC(=O)[C@H](C)C1` is below 8 µM in terms of GI50.
Output: satisfied

Input: Problem: For the compound COC(=O)C1SC(SC)=NC12c1ccccc1Nc1ccccc12 (configuration not stated) , is GI50 under 8 µM?
Output: not satisfied

Input: Here's an entry: `CCOC(=O)c1c(NC(=O)c2cccs2)sc2c1CCC2` . Is its GI50 below 8 µM?
Output: not satisfied

Input: Decide: GI50 of `O=C(N/N=C/c1ccccc1O)c1cccc([N+](=O)[O-])c1` strictly below 8 µM?
Output: satisfied

Input: Record COC(=O)C1=COC2OC3CC1C2C(C)O3 (configuration not stated) : is its GI50 strictly below 8 µM?
Output: not satisfied

Input: Item `Cc1cc(Cl)ccc1Nc1nc2c(s1)C(=O)c1ccccc1C2=O` : GI50 beneath 8 µM, strictly?
Output: satisfied

Input: Could you please tell me whether GI50 recorded for `COC(=O)c1ccccc1/N=C/c1ccc(N(CCC#N)S(=O)(=O)c2ccccc2)cc1` is less than 8 µM?
Output: not satisfied

Every entry's value here was drawn from ChEMBL document CHEMBL1201862.
